Every entry's value here was drawn from patent US10287259B2.

tested on: Panc-1 cells; assay: MTT cell viability assay, Panc-1; assay type: cell-based; conditions: Homo sapiens, PANC-1, 48 h
observation type: IC50

[[record]]
chem_smiles = "CC(=O)Oc1ccccc1C(=O)/N=C1\\[Se]CCN1C(=O)c1ccccc1OC(C)=O"
result = "1000 to 2500 nM"


* * *

assay: Maximum tolerated dose (MTD) / toxicology studies in mice; conditions: nude, mouse, in vivo, ip
observation type: MTD

[[record]]
chem_smiles = "CC(=O)Oc1ccccc1C(=O)/N=C1\\[Se]CCN1C(=O)c1ccccc1OC(C)=O"
observation_type = "MTD"
result = "~80 mg/kg"


* * *

test system: pancreatic cancer cells; experiment: MTT cell viability assay, pancreatic cancer (PC) cells; format: cell-based; conditions: Pancreatic cancer cell; read-out: IC50, cytotoxicity to pancreatic cancer cells
observation type: IC50

[[record]]
chem_smiles = "CC(=O)Oc1ccccc1C(=O)/N=C1\\[Se]CCN1C(=O)c1ccccc1OC(C)=O"
result = "500 to 2500 nM"

